# targetSystem: Human Ganglion (SH-SY5Y cells) (Homo sapiens, UniProt P30532+P30926+P32297)
# Construct: endogenous in cells; host or cells: SH-SY5Y human neuroblastoma cells
# Sequence (P32297 32-505): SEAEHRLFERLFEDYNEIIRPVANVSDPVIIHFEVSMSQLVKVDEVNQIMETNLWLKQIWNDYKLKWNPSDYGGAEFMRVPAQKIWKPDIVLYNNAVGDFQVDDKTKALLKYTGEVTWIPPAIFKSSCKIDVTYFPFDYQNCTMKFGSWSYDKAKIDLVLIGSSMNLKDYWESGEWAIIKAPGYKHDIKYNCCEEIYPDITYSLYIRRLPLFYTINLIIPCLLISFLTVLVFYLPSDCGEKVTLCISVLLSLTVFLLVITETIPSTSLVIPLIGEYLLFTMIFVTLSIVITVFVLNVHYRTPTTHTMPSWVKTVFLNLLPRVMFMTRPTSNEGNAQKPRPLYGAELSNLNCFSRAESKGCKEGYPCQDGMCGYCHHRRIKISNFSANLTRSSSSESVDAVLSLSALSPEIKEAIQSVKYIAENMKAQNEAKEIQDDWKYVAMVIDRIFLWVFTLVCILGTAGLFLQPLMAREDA
# Sequence (P30926 22-498): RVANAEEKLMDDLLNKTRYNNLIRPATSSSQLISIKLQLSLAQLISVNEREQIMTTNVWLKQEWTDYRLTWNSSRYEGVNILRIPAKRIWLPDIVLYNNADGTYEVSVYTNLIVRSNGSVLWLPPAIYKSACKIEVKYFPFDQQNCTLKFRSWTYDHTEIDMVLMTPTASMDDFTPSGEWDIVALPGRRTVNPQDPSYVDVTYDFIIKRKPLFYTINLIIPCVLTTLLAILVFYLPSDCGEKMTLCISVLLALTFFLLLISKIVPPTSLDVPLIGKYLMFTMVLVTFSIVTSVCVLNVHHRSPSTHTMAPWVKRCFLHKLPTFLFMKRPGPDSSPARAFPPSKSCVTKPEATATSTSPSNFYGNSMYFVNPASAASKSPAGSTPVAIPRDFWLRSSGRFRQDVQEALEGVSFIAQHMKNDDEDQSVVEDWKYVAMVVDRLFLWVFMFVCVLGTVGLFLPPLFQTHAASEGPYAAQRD
# Sequence (P30532 23-468): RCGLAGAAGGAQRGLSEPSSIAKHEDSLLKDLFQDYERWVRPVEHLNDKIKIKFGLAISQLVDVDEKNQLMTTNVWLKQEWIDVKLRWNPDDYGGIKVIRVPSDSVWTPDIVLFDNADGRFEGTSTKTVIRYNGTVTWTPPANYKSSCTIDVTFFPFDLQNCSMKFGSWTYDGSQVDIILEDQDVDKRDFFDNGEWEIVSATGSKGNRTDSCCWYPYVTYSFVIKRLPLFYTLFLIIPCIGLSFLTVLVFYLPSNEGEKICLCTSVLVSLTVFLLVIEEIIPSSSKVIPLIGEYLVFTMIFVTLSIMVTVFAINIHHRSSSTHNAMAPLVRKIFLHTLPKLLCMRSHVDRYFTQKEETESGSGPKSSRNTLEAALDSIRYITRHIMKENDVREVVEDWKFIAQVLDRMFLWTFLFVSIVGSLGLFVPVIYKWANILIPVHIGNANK
# runDescription: Calcium flux inhibition, human ganglion (SH-SY5Y cells)
# Format: cell-based
# conditionSet: SH-SY5Y cells, nicotine 20 μM; read-out: Human Ganglion Ca Flux IC50
The reader will find reported IC50 values listed item by item below.
Report only the number, with the unit µM understood.

(Q) Fill in: IC50 of CCC12CCCC1(NC)C1CCC2C1 (stereo not shown) is ___
(A) 0.02

---

# targetSystem: Nicotinic, human α3β4α5 (Homo sapiens, UniProt P30532+P30926+P32297)
# Construct: endogenous in cells; host or cells: SH-SY5Y human neuroblastoma cells
# runDescription: Competition binding, human ganglion nicotinic receptor (SH-SY5Y membranes)
# conditionSet: SH-SY5Y cell membranes (α3β4α5), [3H]epibatidine 1 nM; read-out: Human Ganglion Ki
readoutKind: pKi
pKi is defined as minus the log10 of a concentration measured in mol/L.

(Q) Fill in: pKi of CNC12CCCC1(CO)C1CCC2C1 (stereo not shown) is ___
(A) 4.05

Where do these numbers come from? They come from patent US20140288185A1.
